system: T1, human CD4 on human PBMCs (human, UniProt P01730 26-458)
T1 construct: whole, on cells; the CD4-positive gate was set with the control antibodies OKT4 and RPA-T4; also called hCD4
testDescription: FACS, clonal hybridoma supernatant on PBMCs
Listing of entries alongside the reported % CD4 Stain.
readoutName: % CD4 Stain (%)

[[record]]
binder = "75110_05E13A (antibody, V domains shown, Tested as clonal hybridoma supernatant of an AlivaMab Mouse Kappa antibody (human variable regions, kappa; detected with anti-mouse Fc)) VH: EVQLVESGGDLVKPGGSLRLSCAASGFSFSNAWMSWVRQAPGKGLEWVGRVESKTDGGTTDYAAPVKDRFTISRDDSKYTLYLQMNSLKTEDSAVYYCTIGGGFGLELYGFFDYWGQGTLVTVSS VL: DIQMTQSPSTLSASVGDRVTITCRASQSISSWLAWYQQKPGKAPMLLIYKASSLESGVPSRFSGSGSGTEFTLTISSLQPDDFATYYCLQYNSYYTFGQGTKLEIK"
reported = 38.9

[[record]]
binder = "75110_04P06A (antibody, V domains shown, Tested as clonal hybridoma supernatant of an AlivaMab Mouse Kappa antibody (human variable regions, kappa; detected with anti-mouse Fc)) VH: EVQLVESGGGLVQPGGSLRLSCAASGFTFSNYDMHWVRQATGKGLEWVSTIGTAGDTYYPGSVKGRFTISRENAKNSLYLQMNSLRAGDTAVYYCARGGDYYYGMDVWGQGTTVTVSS VL: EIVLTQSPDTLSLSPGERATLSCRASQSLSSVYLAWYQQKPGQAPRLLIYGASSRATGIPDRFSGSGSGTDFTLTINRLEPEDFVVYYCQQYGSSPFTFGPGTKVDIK"
reported = 36.9

